meta.source: patent US7713994B2

Target: cyclin B/CDK1 enzyme (Homo sapiens, UniProt P06493)
Construct: purchased New England BioLabs; host or cells: Sf9 insect cells, recombinant baculovirus
Sequence (P06493 whole entry): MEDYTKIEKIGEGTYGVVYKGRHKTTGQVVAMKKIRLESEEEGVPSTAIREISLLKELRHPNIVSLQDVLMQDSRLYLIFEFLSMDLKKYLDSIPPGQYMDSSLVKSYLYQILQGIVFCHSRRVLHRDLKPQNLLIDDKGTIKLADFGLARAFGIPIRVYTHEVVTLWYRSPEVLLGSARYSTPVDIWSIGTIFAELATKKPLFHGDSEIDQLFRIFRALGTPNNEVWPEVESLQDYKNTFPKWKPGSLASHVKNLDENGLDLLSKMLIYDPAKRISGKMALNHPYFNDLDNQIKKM
Sequence (P14635 whole entry partner): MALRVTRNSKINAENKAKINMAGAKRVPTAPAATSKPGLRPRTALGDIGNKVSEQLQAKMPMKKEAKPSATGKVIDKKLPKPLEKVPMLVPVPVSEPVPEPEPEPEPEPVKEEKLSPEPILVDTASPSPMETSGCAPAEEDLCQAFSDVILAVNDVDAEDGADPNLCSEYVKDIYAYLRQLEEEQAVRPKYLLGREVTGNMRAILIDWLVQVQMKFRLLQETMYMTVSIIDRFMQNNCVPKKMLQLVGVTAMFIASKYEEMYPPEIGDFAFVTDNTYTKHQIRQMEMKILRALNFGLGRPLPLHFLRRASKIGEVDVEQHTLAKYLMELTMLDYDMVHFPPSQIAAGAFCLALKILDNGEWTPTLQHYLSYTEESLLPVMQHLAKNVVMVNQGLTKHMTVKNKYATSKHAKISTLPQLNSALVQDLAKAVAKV
Assay: CDK1 ELISA kinase assay (phospho-Rb ser 795 detection)
Type: biochemical
Settings: In Vitro Enzyme Assays, read-out: CDK1 IC50
IC50 by entry:

Completed entries (count: 6):
O=C1NC(=O)c2ccc(-c3ccc(CN4CCCCC4)cc3)cc2C1=CNc1ccc(CN2CCCCC2)cc1 : > 50 µM
CC(C)N1CCN(c2ccc(N/C=C3\C(=O)NC(=O)c4ccc(I)cc43)cn2)CC1 : > 50 µM
CN1CCN(c2ccc(N/C=C3\C(=O)NC(=O)c4ccc(-c5ccsc5)cc43)cc2)CC1 [Example 107] : > 50 µM
C#CC(=O)Nc1ccc(CN/C=C2\C(=O)NC(=O)c3ccc(I)cc32)cc1O : 6.1 µM
O=C1NC(=O)c2ccc(I)cc2/C1=C/Nc1ccc(N2CCN(CC3CC3)CC2)nc1 : > 50 µM
COCCOc1ccc(CN/C=C2\C(=O)NC(=O)c3ccc(Br)cc32)cc1O : > 50 µM

Note to self: IC50 recorded for "CCOc1ccc(CN/C=C2\C(=O)NC(=O)c3ccc(Br)cc32)cc1O" was > 50 µM

Note to self: IC50 recorded for "COCC#Cc1ccc2c(c1)/C(=C/Nc1ccc(N3CCN(C)CC3)cc1)C(=O)NC2=O" was > 50 µM

Note to self: IC50 recorded for "O=C1NC(=O)c2ccc(-c3cccc(O)c3)cc2/C1=C/Nc1ccc(CN2CCCCC2)cc1" was > 50 µM

Note to self: IC50 recorded for "CN(C)NC(=O)c1ccc(N/C=C2\C(=O)NC(=O)c3ccc(Br)cc32)cc1" was > 50 µM

* * *

Test system: BT474
Experiment: Cytotoxicity assay (SRB), BT474
Assay type: cell-based
Conditions: Homo sapiens, BT-474, 144 h, BT474 cells, SRB, 6 days; read-out: In Vitro Cellular Activity IC50 BT474
IC50 by entry:
Hi! Could you send only the number? It should be in µM, unit omitted.

Completed entries (count: 5):
COc1ccc(CN/C=C2\C(=O)NC(=O)c3ccc(-c4ccc(F)cc4)cc32)cc1O [Example 208] : 8.2
COc1ccc(CN/C=C2\C(=O)NC(=O)c3cccc(Br)c32)cc1O [Example 84] : 2.1
C/C=C/C(=O)Nc1ccc(CN/C=C2\C(=O)NC(=O)c3ccc(I)cc32)cc1OC(=O)/C=C/C [Example 343] : 7.7
O=C1NC(=O)c2ccc(N3CCOCC3)cc2/C1=C/Nc1ccc(CN2CCCCC2)cc1 [Example 120] : 8
COC[C@H]1CCCN1c1ccc2c(c1)/C(=C/Nc1ccc(CN3CCCCC3)cc1)C(=O)NC2=O [Example 121] : 7.7

Tested on BT474: COc1ccc(CN(C)/C=C2\C(=O)NC(=O)c3ccc(Br)cc32)cc1O [Example 163] . Observed IC50: 38

Tested on BT474: CN1CCN(c2ccc(NC=C3C(=O)NC(=O)c4ccc(OCCN5CCOCC5)cc43)cc2)CC1 [Example 155] . Observed IC50: 22

Tested on BT474: COc1ccc(C(=O)NN/C=C2\C(=O)NC(=O)c3ccc(Br)cc32)cc1O [Example 202] . Observed IC50: 18

Tested on BT474: O=C1NC(=O)c2ccccc2/C1=C/Nc1cccc(CCN2CCCC2)c1 [Example 22] . Observed IC50: 21

Tested on BT474: C#CC(=O)Nc1ccc(CN/C=C2\C(=O)NC(=O)c3ccc(I)cc32)cc1O [Example 340] . Observed IC50: 1.4

Tested on BT474: C=CC(=O)Nc1ccc2c(c1)/C(=C/Nc1ccc(N3CCN(C)CC3)cc1)C(=O)NC2=O [Example 385] . Observed IC50: 0.39

Tested on BT474: COCC#Cc1ccc2c(c1)/C(=C/Nc1ccc(N3CCN(C)CC3)cc1)C(=O)NC2=O [Example 177] . Observed IC50: 3.9

Tested on BT474: O=C1NC(=O)c2ccc(Br)cc2/C1=C/NCCCN1CCOCC1 [Example 310] . Observed IC50: 27

Tested on BT474: CN1CCN(c2ccc(N/C=C3\C(=O)NC(=O)c4ccc(-n5cccc5)cc43)cc2F)CC1 [Example 328] . Observed IC50: 1.6

Tested on BT474: COc1ccc(CN/C=C2\C(=O)NC(=O)c3ccc(-n4cccc4)cc32)cc1O [Example 71] . Observed IC50: 3.8

Tested on BT474: C[C@@H]1CN(c2ccc(N/C=C3\C(=O)NC(=O)c4ccc(I)cc43)cc2)C[C@H](C)N1C [Example 234] . Observed IC50: 2.5

Tested on BT474: O=C1NC(=O)c2ccc(I)cc2/C1=C/Nc1ccc(OCc2ccccn2)cc1 [Example 247] . Observed IC50: 35
